test: in vivo; settings: female, MMTV-PyMT (FVB/NJ background), mouse, po, Kpfatpad, AUCtissue/AUCplasma, fatpad
measurement kind: Kp

Oc1ccc2c(c1)CC[C@H](c1ccccc1)[C@@H]2c1ccc(OCCN2CCCC2)cc1 [Lasofoxifene, lasofoxifene]; 5.7
CC/C(=C(/c1ccc(OCCN(C)C)cc1)c1cccc(O)c1)c1ccccc1 [Droloxifene]; 9.5

P: CC/C(=C(\c1ccc(O)cc1)c1ccc(OCCN(C)C)cc1)c1ccccc1 [Afimoxifene, afimoxifene]
Q: COc1ccc2c(c1)CCC(c1ccccc1)=C2c1ccc(OCCN2CCCC2)cc1 [Nafoxidine, nafoxidine]
R: CN(C)CCOc1ccc(/C(=C(/CCCl)c2ccccc2)c2ccccc2)cc1 [Toremifene, toremifene]
Arrange the 3 molecules by rising Kp, starting with the smallest. Please list each label once, in the requested order.
Q, P, R
(Q: 4.5, P: 10.9, R: 20.9)

* * *

assay: in vivo; conditions: female, MMTV-PyMT (FVB/NJ background), mouse, po, 5 mg/kg
measurement kind: bioavailability (%)

CC/C(=C(\c1ccc(O)cc1)c1ccc(OCCN(C)C)cc1)c1ccccc1 [Afimoxifene, afimoxifene]; 32.4
CC/C(=C(/c1ccc(OCCN(C)C)cc1)c1cccc(O)c1)c1ccccc1 [Droloxifene]; 45.3

I: CC/C(=C(\c1ccccc1)c1ccc(OCCN(C)C)cc1)c1ccccc1 [Tamoxifen]
II: CN(C)CCOc1ccc(/C(=C(/CCCl)c2ccccc2)c2ccccc2)cc1 [Toremifene, toremifene]
Param pair: I , II . Output: the one whose bioavailability is numerically greater. Please identify the chosen entry by its label.
I
(I: 39.4%, II: 18.5%)

* * *

conditions: oral 5 mg/kg; tumor
measurement kind: AUCtumor

Oc1ccc2c(c1)CC[C@H](c1ccccc1)[C@@H]2c1ccc(OCCN2CCCC2)cc1; 996
CC/C(=C(\c1ccc(O)cc1)c1ccc(OCCN(C)C)cc1)c1ccccc1; 2886.5
CC/C(=C(/c1ccc(OCCN(C)C)cc1)c1cccc(O)c1)c1ccccc1; 3238.8

P: CN(C)CCOc1ccc(/C(=C(/CCCl)c2ccccc2)c2ccccc2)cc1
Q: COc1ccc2c(c1)CCC(c1ccccc1)=C2c1ccc(OCCN2CCCC2)cc1
R: CC/C(=C(\c1ccccc1)c1ccc(OCCN(C)C)cc1)c1ccccc1
S: O=C(c1ccc(OCCN2CCCCC2)cc1)c1c(-c2ccc(O)cc2)sc2cc(O)ccc12
Sequence the entries by AUCtumor, beginning with the highest number. Would you mind listing the labels in the order requested?
Q, R, P, S
(Q: 6118.7, R: 3621.3, P: 1393, S: 929.4)

* * *

test: in vivo; details: female, MMTV-PyMT (FVB/NJ background), mouse, po, 5 mg/kg
measurement kind: AUC (ng·h/mL)

CC/C(=C(/c1ccc(OCCN(C)C)cc1)c1cccc(O)c1)c1ccccc1; 127

1: CC/C(=C(\c1ccc(O)cc1)c1ccc(OCCN(C)C)cc1)c1ccccc1
2: CN(C)CCOc1ccc(/C(=C(/CCCl)c2ccccc2)c2ccccc2)cc1
Compare 1 and 2 by numeric AUC and name the larger one. Reply briefly: the label of your chosen item.
1
(1: 114 ng·h/mL, 2: 64.9 ng·h/mL)

* * *

test: in vivo; details: female, MMTV-PyMT (FVB/NJ background), mouse, po, Kptumor, AUCtissue/AUCplasma, tumor
measurement kind: Kp

Below, 3 compounds whose answers are already recorded.
CC/C(=C(\c1ccc(O)cc1)c1ccc(OCCN(C)C)cc1)c1ccccc1; 25.3
CN(C)CCOc1ccc(/C(=C(/CCCl)c2ccccc2)c2ccccc2)cc1; 21.5
CC/C(=C(/c1ccc(OCCN(C)C)cc1)c1cccc(O)c1)c1ccccc1; 25.6

P: Oc1ccc2c(c1)CC[C@H](c1ccccc1)[C@@H]2c1ccc(OCCN2CCCC2)cc1
Q: COc1ccc2c(c1)CCC(c1ccccc1)=C2c1ccc(OCCN2CCCC2)cc1
Pick the one with the larger Kp: P vs Q Indicate which entry you chose by stating its label.
P

* * *

assay: in vivo; details: female, MMTV-PyMT (FVB/NJ background), mouse, po, 5 mg/kg
measurement kind: AUC (ng·h/mL)

O=C(c1ccc(OCCN2CCCCC2)cc1)c1c(-c2ccc(O)cc2)sc2cc(O)ccc12; 114
Oc1ccc2c(c1)CC[C@H](c1ccccc1)[C@@H]2c1ccc(OCCN2CCCC2)cc1; 75.4

1: CC/C(=C(\c1ccccc1)c1ccc(OCCN(C)C)cc1)c1ccccc1
2: COc1ccc2c(c1)CCC(c1ccccc1)=C2c1ccc(OCCN2CCCC2)cc1
Which value of AUC is smaller, the one for 1 or the one for 2 ? // output: label of the selected item
1

* * *

assay: in vivo; conditions: female, MMTV-PyMT (FVB/NJ background), mouse, po, Kpbone, AUCtissue/AUCplasma, bone
measurement kind: Kp

CN(C)CCOc1ccc(/C(=C(/CCCl)c2ccccc2)c2ccccc2)cc1; 5.1
CC/C(=C(/c1ccc(OCCN(C)C)cc1)c1cccc(O)c1)c1ccccc1; 7.7
COc1ccc2c(c1)CCC(c1ccccc1)=C2c1ccc(OCCN2CCCC2)cc1; 1.4

a: CC/C(=C(\c1ccc(O)cc1)c1ccc(OCCN(C)C)cc1)c1ccccc1
b: Oc1ccc2c(c1)CC[C@H](c1ccccc1)[C@@H]2c1ccc(OCCN2CCCC2)cc1
Dear colleague, could you let me know whether a or b has the lower recorded Kp? Thanks. Choose, then provide that item's label.
b
(b: 3.5, a: 5)
